MEASUREMENT CONDITIONS: LC-MS determination in the acidic range, pH 2.7, 0.1% aqueous formic acid and acetonitrile
QUANTITY MEASURED: Log P [a]

[[record]]
compound = "Cc1cc(C(F)(F)F)nn1CC(=O)N1CCC(c2nc(C3=NOC(C(C)(C)c4c(F)cccc4Cl)C3)cs2)CC1 (stereo not drawn) [I-67]"
recorded_measurement = 4.43

[[record]]
compound = "Cc1ccc(Cl)cc1NC(=O)N1CCC(c2nc(C3=NOC(COc4ccccc4)C3)cs2)CC1 (stereo not drawn) [I-33]"
recorded_measurement = 3.54

[[record]]
compound = "CC(C)(c1c(F)cccc1Cl)C1CC(c2csc(C3CCN(C(=O)Nc4cc(C(F)F)ccc4C(F)F)CC3)n2)=NO1 (stereo not drawn) [I-53]"
recorded_measurement = 4.53

[[record]]
compound = "CC(=O)c1ccccc1OCC1CC(c2csc(C3CCN(C(=O)Cn4nc(C(F)F)cc4C(F)F)CC3)n2)=NO1 (stereo not drawn) [I-12]"
recorded_measurement = 2.93

[[record]]
compound = "COc1ccc(C)cc1NC(=O)N1CCC(c2nc(C3=NOC(COc4ccccc4)C3)cs2)CC1 (stereo not drawn) [I-38]"
recorded_measurement = 3.59

[[record]]
compound = "Cc1cc(C(F)F)nn1CC(=O)N1CCC(c2nc(C3=NOC(COc4c(Cl)cccc4Cl)C3)cs2)CC1 (stereo not drawn) [I-45]"
recorded_measurement = 3.35

[[record]]
compound = "Cc1ccccc1OCC1CC(c2csc(C3CCN(C(=O)Cn4nc(C(F)F)cc4C(F)F)CC3)n2)=NO1 (stereo not drawn) [I-13]"
recorded_measurement = 3.5

[[record]]
compound = "Cc1ccccc1SCC1CC(c2csc(C3CCN(C(=O)Cn4nc(C(F)F)cc4C(F)F)CC3)n2)=NO1 (stereo not drawn) [I-70]"
recorded_measurement = 3.78

[[record]]
compound = "O=C(CCC1CC(c2csc(C3CCN(C(=O)Cn4nc(C(F)F)cc4C(F)F)CC3)n2)=NO1)c1ccccc1 (stereo not drawn) [I-6]"
recorded_measurement = 3.16

[[record]]
compound = "CC(C)(c1c(F)cccc1F)C1CC(c2csc(C3CCN(C(=O)Cn4nc(C(F)F)cc4C(F)F)CC3)n2)=NO1 (stereo not drawn) [I-66]"
recorded_measurement = 4.05

[[record]]
compound = "O=C(Cn1nc(C(F)F)cc1C(F)F)N1CCC(c2nc(C3=NOC(COc4c(Cl)cccc4Cl)C3)cs2)CC1 (stereo not drawn) [I-1]"
recorded_measurement = 3.7

[[record]]
compound = "O=C(Cn1nc(C(F)F)cc1C(F)F)N1CCC(c2nc(C3=NOC(CSc4ccccc4F)C3)cs2)CC1 (stereo not drawn) [I-55]"
recorded_measurement = 3.54

[[record]]
compound = "Cc1ccc(Cl)cc1NC(=O)N1CCC(c2nc(C3=NOC(COc4c(F)cccc4Cl)C3)cs2)CC1 (stereo not drawn) [I-51]"
recorded_measurement = 3.81

[[record]]
compound = "O=C(Cn1nc(C(F)F)cc1C(F)F)N1CCC(c2nc(C3=NOC(CSc4ccccc4)C3)cs2)CC1 (stereo not drawn) [I-10]"
recorded_measurement = 3.46

[[record]]
compound = "O=C(Cc1cc(Cl)ccc1Cl)N1CCC(c2nc(C3=NOC(COc4ccccc4)C3)cs2)CC1 (stereo not drawn) [I-23]"
recorded_measurement = 3.89

[[record]]
compound = "Cc1cc(C(F)(F)F)nn1CC(=O)N1CCC(c2nc(C3=NOC(C(C)(C)c4c(F)cccc4F)C3)cs2)CC1 (stereo not drawn) [I-62]"
recorded_measurement = 4.09

[[record]]
compound = "O=C(Cn1nc(C(F)F)cc1C(F)F)N1CCC(c2nc(C3=NOC(COc4ccccc4Cl)C3)cs2)CC1 (stereo not drawn) [I-71]"
recorded_measurement = 3.35

[[record]]
compound = "COc1ccccc1OCC1CC(c2csc(C3CCN(C(=O)Cn4nc(C(F)F)cc4C(F)F)CC3)n2)=NO1 (stereo not drawn) [I-26]"
recorded_measurement = 3.01


---

PROTOCOL DESCRIPTION: physchem
MEASUREMENT CONDITIONS: pH 2.7
QUANTITY MEASURED: chromatographic logP

[[record]]
molecule = "O=C(Cn1nc(C(F)F)cc1C(F)F)N1CCC(c2nc(C3=NOC(C(F)(F)c4ccccc4)C3)cs2)CC1 (stereo not drawn) [I-9]"
quantity_measured = "chromatographic logP"
recorded_measurement = 3.41

[[record]]
molecule = "FC(F)c1cc(C(F)F)n(CC(=S)N2CCC(c3nc(C4=NOC(C(F)(F)c5ccccc5)C4)cs3)CC2)n1 (stereo not drawn) [I-31]"
quantity_measured = "chromatographic logP"
recorded_measurement = 3.88

[[record]]
molecule = "O=C(Cn1nc(C(F)F)cc1C(F)F)N1CCC(c2nc(C3=NOC(COc4c(F)cccc4F)C3)cs2)CC1 (stereo not drawn) [I-43]"
quantity_measured = "chromatographic logP"
recorded_measurement = 3.3

[[record]]
molecule = "COC(c1ccccc1)C1CC(c2csc(C3(F)CCN(C(=O)Cn4nc(C(F)F)cc4C(F)F)CC3)n2)=NO1 (stereo not drawn) [I-15]"
quantity_measured = "chromatographic logP"
recorded_measurement = 3.56

[[record]]
molecule = "O=C(Cn1nc(C(F)F)cc1C(F)F)N1CCC(c2nc(C3=NOC(COc4ccccc4)C3)cs2)CC1 (stereo not drawn) [I-2]"
quantity_measured = "chromatographic logP"
recorded_measurement = 3.22

[[record]]
molecule = "O=C(Nc1cc(C(F)F)ccc1C(F)F)N1CCC(c2nc(C3=NOC(C(F)(F)c4ccccc4)C3)cs2)CC1 (stereo not drawn) [I-16]"
quantity_measured = "chromatographic logP"
recorded_measurement = 3.64


---

PROTOCOL DESCRIPTION: physchem
MEASUREMENT CONDITIONS: pH 7.8
The entries below are paired with their reported chromatographic logP.
QUANTITY MEASURED: chromatographic logP

[[record]]
molecule = "O=C(Cn1nc(C(F)F)cc1C(F)F)N1CCC(c2nc(C3=NOC(COc4c(F)cccc4F)C3)cs2)CC1 (centres unmarked)"
quantity_measured = "chromatographic logP"
recorded_measurement = 3.23

[[record]]
molecule = "O=C(Cn1nc(C(F)F)cc1C(F)F)N1CCC(c2nc(C3=NOC(COc4ccccc4)C3)cs2)CC1 (centres unmarked)"
quantity_measured = "chromatographic logP"
recorded_measurement = 3.25


---

Tested on: Plasmopara viticola
PROTOCOL DESCRIPTION: Plasmopara test (grapevine) / protective
Assay type: in vivo
MEASUREMENT CONDITIONS: young grapevine plants sprayed, active ingredient concentration 10 ppm; evaluation 6 days after inoculation; 100% = no infection
QUANTITY MEASURED: % eff. (%)

[[record]]
compound = "O=C(Cn1nc(C(F)F)cc1C(F)F)N1CCC(c2nc(C3=NOC(C(F)(F)c4ccccc4)C3)cs2)CC1 (centres unmarked)"
quantity_measured = "% eff."
recorded_measurement = 100

[[record]]
compound = "Cc1cc(C(F)(F)F)nn1CC(=O)N1CCC(c2nc(C3=NOC(C(C)(C)c4c(F)cccc4Cl)C3)cs2)CC1 (centres unmarked)"
quantity_measured = "% eff."
recorded_measurement = 100

[[record]]
compound = "O=C(Cn1nc(C(F)F)cc1C(F)F)N1CCC(c2nc(C3=NOC(COc4c(F)cccc4Br)C3)cs2)CC1 (centres unmarked)"
quantity_measured = "% eff."
recorded_measurement = 98

[[record]]
compound = "O=C(Cn1nc(C(F)F)cc1C(F)F)N1CCC(c2nc(-c3cc(COc4ccccc4)on3)cs2)CC1"
quantity_measured = "% eff."
recorded_measurement = 100

[[record]]
compound = "O=C(Cn1nc(C(F)F)cc1C(F)F)N1CCC(c2nc(C3=NOC(COc4ccccc4F)C3)cs2)CC1 (centres unmarked)"
quantity_measured = "% eff."
recorded_measurement = 100

[[record]]
compound = "Cc1ccc(Cl)cc1NC(=O)N1CCC(c2nc(C3=NOC(COc4c(F)cccc4Cl)C3)cs2)CC1 (centres unmarked)"
quantity_measured = "% eff."
recorded_measurement = 93

[[record]]
compound = "O=C(Cn1nc(C(F)F)cc1C(F)F)N1CCC(c2nc(C3=NOC(CSc4ccccc4)C3)cs2)CC1 (centres unmarked)"
quantity_measured = "% eff."
recorded_measurement = 93

[[record]]
compound = "O=C(Cc1cc(Cl)ccc1Cl)N1CCC(c2nc(C3=NOC(COc4ccccc4)C3)cs2)CC1 (centres unmarked)"
quantity_measured = "% eff."
recorded_measurement = 89

[[record]]
compound = "Cc1ccc(Cl)cc1NC(=O)N1CCC(c2nc(C3=NOC(COc4c(F)cccc4F)C3)cs2)CC1 (centres unmarked)"
quantity_measured = "% eff."
recorded_measurement = 97

[[record]]
compound = "Cc1cc(C(F)(F)F)nn1CC(=O)N1CCC(c2nc(C3=NOC(C(F)c4c(F)cccc4F)C3)cs2)CC1 (centres unmarked)"
quantity_measured = "% eff."
recorded_measurement = 93

[[record]]
compound = "O=C(Cn1nc(C(F)F)cc1C(F)F)N1CCC(c2nc(C3=NOC(CSc4c(Cl)cccc4Cl)C3)cs2)CC1 (centres unmarked)"
quantity_measured = "% eff."
recorded_measurement = 100

[[record]]
compound = "C[Si](C)(c1ccccc1)C1CC(c2csc(C3CCN(C(=O)Cn4nc(C(F)F)cc4C(F)F)CC3)n2)=NO1 (centres unmarked)"
quantity_measured = "% eff."
recorded_measurement = 92

[[record]]
compound = "FC(F)c1cc(C(F)F)n(CC(=S)N2CCC(c3nc(C4=NOC(COc5ccccc5)C4)cs3)CC2)n1 (centres unmarked)"
quantity_measured = "% eff."
recorded_measurement = 96

[[record]]
compound = "Cc1cc(C(F)(F)F)nn1CC(=O)N1CCC(c2nc(C3=NOC(C(C)(C)c4c(F)cccc4F)C3)cs2)CC1 (centres unmarked)"
quantity_measured = "% eff."
recorded_measurement = 96

[[record]]
compound = "O=C(Cn1nc(C(F)F)cc1C(F)F)N1CCC(c2nc(C3=NOC(COc4c(Cl)cccc4Cl)C3)cs2)CC1 (centres unmarked)"
quantity_measured = "% eff."
recorded_measurement = 100

[[record]]
compound = "CC(C)(c1c(F)cccc1Cl)C1CC(c2csc(C3CCN(C(=O)Cn4nc(C(F)F)cc4C(F)F)CC3)n2)=NO1 (centres unmarked)"
quantity_measured = "% eff."
recorded_measurement = 95

[[record]]
compound = "O=C(Cn1nc(C(F)F)cc1C(F)F)N1CCC(c2nc(C3=NOC(COc4ccccc4)C3)cs2)CC1 (centres unmarked)"
quantity_measured = "% eff."
recorded_measurement = 97

[[record]]
compound = "Cc1ccc(C)c(CC(=O)N2CCC(c3nc(C4=NOC(COc5ccccc5)C4)cs3)CC2)c1 (centres unmarked)"
quantity_measured = "% eff."
recorded_measurement = 78

[[record]]
compound = "CC(=O)c1ccccc1OCC1CC(c2csc(C3CCN(C(=O)Cn4nc(C(F)F)cc4C(F)F)CC3)n2)=NO1 (centres unmarked)"
quantity_measured = "% eff."
recorded_measurement = 70

[[record]]
compound = "Cc1cc(C(F)(F)F)nn1CC(=O)N1CCC(c2nc(C3=NOC(COc4c(Cl)cccc4Cl)C3)cs2)CC1 (centres unmarked)"
quantity_measured = "% eff."
recorded_measurement = 100

[[record]]
compound = "COc1cccc(C=O)c1OCC1CC(c2csc(C3CCN(C(=O)Cn4nc(C(F)F)cc4C(F)F)CC3)n2)=NO1 (centres unmarked)"
quantity_measured = "% eff."
recorded_measurement = 81

[[record]]
compound = "O=C(Cn1nc(C(F)F)cc1C(F)F)N1CCC(c2nc(C3=NOC(COc4c(F)cccc4F)C3)cs2)CC1 (centres unmarked)"
quantity_measured = "% eff."
recorded_measurement = 100

[[record]]
compound = "O=C(Cn1nc(C(F)F)cc1C(F)F)N1CCC(c2nc(C3=NOC(CS(=O)(=O)c4ccccc4)C3)cs2)CC1 (centres unmarked)"
quantity_measured = "% eff."
recorded_measurement = 96

[[record]]
compound = "O=C(Nc1cc(C(F)F)ccc1C(F)F)N1CCC(c2nc(C3=NOC(C(F)c4ccccc4)C3)cs2)CC1 (centres unmarked)"
quantity_measured = "% eff."
recorded_measurement = 94

[[record]]
compound = "Cc1cc(C(F)(F)F)nn1CC(=O)N1CCC(c2nc(C3=NOC(C(F)(F)c4c(F)cccc4F)C3)cs2)CC1 (centres unmarked)"
quantity_measured = "% eff."
recorded_measurement = 98

[[record]]
compound = "O=C(Cn1nc(C(F)F)cc1C(F)F)N1CCC(c2nc(C3=NOC(COc4c(Br)cccc4Br)C3)cs2)CC1 (centres unmarked)"
quantity_measured = "% eff."
recorded_measurement = 100

[[record]]
compound = "Cc1ccc(C)c(NC(=O)N2CCC(c3nc(C4=NOC(COc5ccccc5)C4)cs3)CC2)c1 (centres unmarked)"
quantity_measured = "% eff."
recorded_measurement = 94

[[record]]
compound = "Cc1ccc(Cl)cc1NC(=O)N1CCC(c2nc(C3=NOC(COc4c(Cl)cccc4Cl)C3)cs2)CC1 (centres unmarked)"
quantity_measured = "% eff."
recorded_measurement = 100

[[record]]
compound = "O=C(Nc1cc(C(F)F)ccc1C(F)F)N1CCC(c2nc(C3=NOC(C(F)c4c(F)cccc4F)C3)cs2)CC1 (centres unmarked)"
quantity_measured = "% eff."
recorded_measurement = 100

[[record]]
compound = "Cc1cc(C(F)(F)F)nn1CC(=O)N1CCC(c2nc(C3=NOC(COc4ccccc4)C3)cs2)CC1 (centres unmarked)"
quantity_measured = "% eff."
recorded_measurement = 97

[[record]]
compound = "O=C(Cn1nc(C(F)F)cc1C(F)F)N1CCC(c2nc(C3=NOC(CSc4ccccc4Cl)C3)cs2)CC1 (centres unmarked)"
quantity_measured = "% eff."
recorded_measurement = 93

[[record]]
compound = "O=C(Cn1nc(C(F)F)cc1C(F)F)N1CCC(c2nc(C3=NOC(COc4ccccc4C=NO)C3)cs2)CC1 (mixture of isomers)"
quantity_measured = "% eff."
recorded_measurement = 73

